System: trypsin
Assay: Trypsin stability assay
Type: in vitro ADME
Conditions: trypsin in Tris/EDTA buffer; 48 h; 1 μg trypsin, 20 mM Tris, 5 mM EDTA, pH 8.0; 20 μM peptide; 37 °C; RP-HPLC; triplicate; read-out: peptide remaining intact after 48 h in the presence of trypsin
Bridges are numbered along the chain shown (N, C = ends). Where no end group is shown, it is not given here.
measured property: remaining at 48 h, 20 μM

Fill in the recorded remaining at 48 h, 20 μM for this sequence, with trypsin as test system: GTACSCGNSKGIYWFYRPSCPTDRGYTGSCRYFLGTCCTPAD (disulfide 4-37, 6-30, 20-38) [APETx2_wt, APETx2]
~4%

* * *

Test system: trypsin
Assay: Trypsin stability assay
Format: in vitro ADME
Conditions: trypsin in Tris/EDTA buffer; 1 μg trypsin in 500 μL 20 mM Tris, 5 mM EDTA, pH 8.0; 20 μM peptide; 37 °C; samples 0-48 h; RP-HPLC; each time point in triplicate
Method: The following protocol was modified from a previous published method: Wild-type APETx2 and cyclic analogues were diluted into 500 μL trypsin buffer (20 mM Tris, 5 mM EDTA, pH 8.0) to a final concentration of 20 μM. Reactions were started by adding 1 μg trypsin to each sample. A 35-μL sample was used for each time point and quenched by mixing with 35 μL 0.2% TFA. Protease digestion was monitored using analytical RP-HPLC. […]
Bridges are numbered along the chain shown (N, C = ends).
measured property: half-life at 20 μM (h)
Provide only the numeric value, understood in h.

In the examples that follow, each entry is paired with its recorded half-life at 20 μM.
• cyclo(ACSCGNSKGIYWFYRPSCPTDRGYTGSCRYFLGTCCTPADAGASGSAGT) (disulfide 2-35, 4-28, 18-36) [cAPETx2_7RL] = 134
• cyclo(ACSCGNSKGIYWFYRPSCPTDRGYTGSCRYFLGTCCTPADGASGSAGT) (disulfide 2-35, 4-28, 18-36) [cAPETx2_6RL] = 104

Now consider a different substance.
Tell me the measured half-life at 20 μM of cyclo(ACSCGNSKGIYWFYRPSCPTDRGYTGSCRYFLGTCCTPADSAGASGSAGT) (disulfide 2-35, 4-28, 18-36) [cAPETx2_8RL] , please.
131

* * *

Tested on: pepsin
Construct: purchased Sigma Aldrich
Assay: Simulated gastric fluid (SGF) stability assay
Type: in vitro ADME
Settings: simulated gastric fluid (SGF) with pepsin; SGF: 6.2 mg/mL pepsin, 30 mM NaCl, pH 1.9; 20 μM peptide; 37 °C; samples 0-480 min; RP-HPLC; each time point in triplicate
Bridges are numbered along the chain shown (N, C = ends).
measured property: half-life at 20 μM (h)
Value expressed in h; do not type the unit.

Example substances with recorded half-life at 20 μM:
* cyclo(ACSCGNSKGIYWFYRPSCPTDRGYTGSCRYFLGTCCTPADSAGASGSAGT) (disulfide 2-35, 4-28, 18-36) [cAPETx2_8RL] | 1.67
* cyclo(ACSCGNSKGIYWFYRPSCPTDRGYTGSCRYFLGTCCTPADGASGSAGT) (disulfide 2-35, 4-28, 18-36) [cAPETx2_6RL] | 1.9

Which half-life at 20 μM is reported for this substance? cyclo(ACSCGNSKGIYWFYRPSCPTDRGYTGSCRYFLGTCCTPADAGASGSAGT) (disulfide 2-35, 4-28, 18-36) [cAPETx2_7RL]
2.75
